measured-on: FGFR3 (UniProt P22607)
Sequence (P22607 whole entry, looked up): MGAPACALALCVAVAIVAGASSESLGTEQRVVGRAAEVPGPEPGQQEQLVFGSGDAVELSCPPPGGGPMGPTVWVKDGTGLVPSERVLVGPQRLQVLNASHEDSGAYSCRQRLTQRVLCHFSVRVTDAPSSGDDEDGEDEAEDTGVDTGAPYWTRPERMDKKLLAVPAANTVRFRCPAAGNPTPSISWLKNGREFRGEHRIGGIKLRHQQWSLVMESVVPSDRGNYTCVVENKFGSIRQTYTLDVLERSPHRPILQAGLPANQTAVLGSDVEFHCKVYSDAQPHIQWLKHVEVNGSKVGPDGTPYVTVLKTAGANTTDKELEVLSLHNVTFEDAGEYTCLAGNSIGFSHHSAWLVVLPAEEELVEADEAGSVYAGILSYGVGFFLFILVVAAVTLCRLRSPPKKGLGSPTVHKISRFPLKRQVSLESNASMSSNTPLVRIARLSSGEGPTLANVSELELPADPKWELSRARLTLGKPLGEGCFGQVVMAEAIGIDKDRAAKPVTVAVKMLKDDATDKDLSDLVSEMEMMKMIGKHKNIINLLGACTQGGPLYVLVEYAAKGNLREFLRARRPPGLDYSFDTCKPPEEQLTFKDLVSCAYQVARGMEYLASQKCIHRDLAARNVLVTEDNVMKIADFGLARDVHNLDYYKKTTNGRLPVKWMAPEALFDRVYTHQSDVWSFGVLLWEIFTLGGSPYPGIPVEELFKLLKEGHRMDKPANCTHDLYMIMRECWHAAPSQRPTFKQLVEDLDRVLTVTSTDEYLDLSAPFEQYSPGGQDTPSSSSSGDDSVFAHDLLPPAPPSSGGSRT
experiment-notes: phosphorylation enrichment, bacterial display (enrichment ratio); higher = better substrate or ligand; peptides without Tyr show the background;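 note: 11-residue human phosphosite peptides and single-mutation variants displayed on the E. coli surface, counted by deep sequencing, each peptide's frequency after selection divided by its frequency in the unselected input library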;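 note: frequency after pTyr selection over input frequency; kinase dosed for 20-30% of maximal phosphorylation in three min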
Returns 1.0 if the recorded phosphorylation enrichment is greater than or equal to 0.8, and 0.0 otherwise.

Known results for sequences:
1) KMTGRYEMYAR [UPB1_Y362]    0.0
2) MTFQNYRQALF [FAM20C_Y279_G280R]    0.0
3) SFCFRYCCAAR [SUMF1_Y344_R345C_YF]    0.0
4) AQADIYKANFQ [IKBKG_Y308_D311N]    0.0
5) GKGGSYSQAAC [HLA-B_Y344]    0.0

Dear colleague, could you confirm whether QGIPWYHSQSP [FOXF1_Y331_R330W] has phosphorylation enrichment at or above 0.8? 0.0

Dear colleague, could you confirm whether IVRSLYKDLED [VHL_Y185_E186K] has phosphorylation enrichment at or above 0.8? 0.0

Dear colleague, could you confirm whether NHYKIHNLCAE [PTEN_Y68_Y68H] has phosphorylation enrichment at or above 0.8? 0.0

Dear colleague, could you confirm whether KVWGIYDCQQP [CYP3A7_Y75] has phosphorylation enrichment at or above 0.8? 0.0

Dear colleague, could you confirm whether RHNEIYEIKVD [LGR5_Y387] has phosphorylation enrichment at or above 0.8? 1.0

Dear colleague, could you confirm whether ISGLKYPVSQQ [BTK_Y375_R372G] has phosphorylation enrichment at or above 0.8? 0.0

Dear colleague, could you confirm whether IKELTYQMEED [MYH7_Y1852_T1854M] has phosphorylation enrichment at or above 0.8? 0.0

Dear colleague, could you confirm whether EFKKKYSDADI [CKAP5_Y1860_YF] has phosphorylation enrichment at or above 0.8? 0.0

Dear colleague, could you confirm whether QTEAPYRFIYM [PTPN11_Y511_Q510P] has phosphorylation enrichment at or above 0.8? 1.0

----------
Give phosphorylation enrichment for every item shown.
measured-on: FGFR3 (UniProt P22607)
experiment-notes: phosphorylation enrichment, bacterial display (enrichment ratio); higher = better substrate or ligand; peptides without Tyr show the background
Numbers only.

1) TTSQPYRCLCS [USH2A_Y534]    0.707
2) PIPIKYKAMKK [MYD88_Y257_L252P]    0.858
3) QTLTDYDTRFF [CSNK2A3_Y131_I133T_YF]    0.912
4) GPTLSYGRDGR [MATR3_Y158]    0.377

Consider the following items and state reported phosphorylation enrichment for each.
1. RKLASYQSCLL [DHX37_Y1080_R1081Q]
2. GRFCGYKSKHG [EPHA3_Y570]

[1.22, 0.638]

----------
measured-on: Fyn (UniProt P06241)
Sequence (P06241 whole entry, looked up): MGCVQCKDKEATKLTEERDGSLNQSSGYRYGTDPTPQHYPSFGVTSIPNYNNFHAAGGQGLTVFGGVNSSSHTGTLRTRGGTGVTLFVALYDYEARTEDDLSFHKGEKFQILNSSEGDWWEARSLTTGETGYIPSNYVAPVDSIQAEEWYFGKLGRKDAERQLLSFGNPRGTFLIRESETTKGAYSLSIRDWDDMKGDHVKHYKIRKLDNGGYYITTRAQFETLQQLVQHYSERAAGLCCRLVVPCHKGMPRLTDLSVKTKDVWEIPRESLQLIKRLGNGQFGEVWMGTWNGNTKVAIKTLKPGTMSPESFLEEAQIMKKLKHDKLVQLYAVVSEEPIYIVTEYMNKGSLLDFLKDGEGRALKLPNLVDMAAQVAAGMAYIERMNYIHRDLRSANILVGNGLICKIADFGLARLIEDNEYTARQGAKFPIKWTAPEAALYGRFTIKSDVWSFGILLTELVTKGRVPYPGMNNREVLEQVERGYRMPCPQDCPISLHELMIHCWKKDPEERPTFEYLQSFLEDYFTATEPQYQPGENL
experiment-notes: phosphorylation enrichment, bacterial display (enrichment ratio); higher = better substrate or ligand; peptides without Tyr show the background
Give phosphorylation enrichment for every item shown.

The examples below pair each entry with its known result.
1) KEGSAYGSQSV [NFKB2_Y868_D865G]    0.395
2) TRSCKYLLLSM [NF1_Y491_Y489C]    0.441
3) SIKHKYVTALY [KCNH2_Y611_D609H]    0.43

Supply reported phosphorylation enrichment belonging to this sequence: VRFTEYETQVK [TARDBP_Y155] 0.4

----------
Test system: AncSZ
experiment-notes: phosphorylation enrichment, bacterial display (enrichment ratio); higher = better substrate or ligand; peptides without Tyr show the background
Returns t if the recorded phosphorylation enrichment is greater than or equal to 0.7, and f otherwise.

1. MIRSTYALGGL [CPS1_Y590_A589T]    f
2. AHAGEYGAVAL [HBA1_Y25_E28V]    f
3. AVRVFYRKCPR [EPHB2_Y194]    t
4. IDSTPYRQWYE [RPS8_Y109]    t
5. WQQQSYLDLGI [CTNNB1_Y30_S33L]    t

Dear colleague, could you confirm whether FSVDSYDSSVR [KCNQ1_Y461_G460S] has phosphorylation enrichment at or above 0.7? t

Dear colleague, could you confirm whether YGSGNYNDFGN [HNRNPA2B1_Y300] has phosphorylation enrichment at or above 0.7? t

Dear colleague, could you confirm whether FCIDHYLGKEM [G6PD_Y202_R198C_YF] has phosphorylation enrichment at or above 0.7? t
